This collection of values is drawn from PubChem BioAssay (Tox21).

PROTOCOL_DESCRIPTION: qHTS assay to identify small molecule antagonists of the TGF-beta/Smad signaling pathway - cell viability counter screen (AID 1346824); note: % is set by controls: 0 for no effect and ±100 for the full control effect; nearly all actives have a fitted effect of over 50% in size
STATED_CONDITIONS: SBE-bla HEK293T viability, CellTiter-Glo luminescence; series mostly up to 76.8 µM
Results filed as inconclusive are left out. Activity calls are given as the source filed them. Calls come from the whole dose curve; as a rule, active = well fitted cell-killing curve with a large enough effect in the repeat runs; inconclusive = weak or mixed curves; inactive = flat fitted curve, though single readings scatter.
ASSAY_ENDPOINT: viability change, negative = cytotoxic

Completed entries (count: 10):
>  <COMPOUND>
O=C(O)COCC(=O)O

>  <ASSAY_ENDPOINT>
viability change, negative = cytotoxic

>  <ASSAY_RESULT>
inactive

$$$$
>  <COMPOUND>
CC1(COc2ccc(CC3SC(=O)NC3=O)cc2)CCCCC1 (stereo not drawn)

>  <ASSAY_ENDPOINT>
viability change, negative = cytotoxic

>  <ASSAY_RESULT>
inactive

$$$$
>  <COMPOUND>
CC(=O)CC/C=C(\C)CC/C=C(\C)CC/C=C(\C)CCC=C(C)C

>  <ASSAY_ENDPOINT>
viability change, negative = cytotoxic

>  <ASSAY_RESULT>
inactive

$$$$
>  <COMPOUND>
CC(=O)S[C@H](C(=O)N[C@H]1Cc2ccccc2[C@H]2CCC[C@@H](C(=O)O)N2C1=O)C(C)C

>  <ASSAY_ENDPOINT>
viability change, negative = cytotoxic

>  <ASSAY_RESULT>
inactive

$$$$
>  <COMPOUND>
COC=O

>  <ASSAY_ENDPOINT>
viability change, negative = cytotoxic

>  <ASSAY_RESULT>
2.71% [at 6.97 µM] (inactive)

$$$$
>  <COMPOUND>
O=C(c1ccc(Cl)cc1)c1ccc(Cl)cc1

>  <ASSAY_ENDPOINT>
viability change, negative = cytotoxic

>  <ASSAY_RESULT>
inactive

$$$$
>  <COMPOUND>
N#C[C@@H]1CC(F)(F)CN1C(=O)CNC1CC2CCC(C1)N2c1ncccn1 (stereo partly drawn)

>  <ASSAY_ENDPOINT>
viability change, negative = cytotoxic

>  <ASSAY_RESULT>
inactive

$$$$
>  <COMPOUND>
O=C(O)c1ccc2cc(O)ccc2c1

>  <ASSAY_ENDPOINT>
viability change, negative = cytotoxic

>  <ASSAY_RESULT>
inactive

$$$$
>  <COMPOUND>
CCc1c(C)[nH]c2c1C(=O)C(CN1CCOCC1)CC2 (stereo not drawn)

>  <ASSAY_ENDPOINT>
viability change, negative = cytotoxic

>  <ASSAY_RESULT>
inactive

$$$$
>  <COMPOUND>
COc1cc(CNC(=O)CCCC/C=C/C(C)C)ccc1O

>  <ASSAY_ENDPOINT>
viability change, negative = cytotoxic

>  <ASSAY_RESULT>
inactive

$$$$

viability change, negative = cytotoxic recorded for this compound, C=C(C)C(=O)OCCCCCCCCCCOC(=O)C(=C)C , is inactive

viability change, negative = cytotoxic recorded for this compound, Cc1cc(N)n(-c2ccccc2)n1 , is inactive

viability change, negative = cytotoxic recorded for this compound, C=CC(O)CCCCC (stereo not drawn) , is inactive

====

PROTOCOL_DESCRIPTION: qHTS assay for small molecule disruptors of the mitochondrial membrane potential (AID 720635)
STATED_CONDITIONS: HepG2 mitochondrial membrane potential, Mito-MPS dye ratio; series mostly up to 83.2 µM
Results filed as inconclusive are left out. Active and inactive are the calls of the source. The call rests on the fitted dose curve; in most records, active means well fitted inhibition curve with a large enough effect in the signal ratio in the repeat runs; inconclusive means weak or mixed curves, or effect the other way; inactive means flat fitted curve, though single readings scatter; the % refers to the signal ratio.
The categories you may choose from are active, inactive

Input: Hi team, can someone confirm the assay call for C[C@H](CN1CCCC1)C(=O)c1ccc(C(F)(F)F)cc1 ?
Output: inactive

Input: Hi team, can someone confirm the assay call for CCc1cnc(C(=O)O)c(C(=O)O)c1 ?
Output: inactive

Input: Hi team, can someone confirm the assay call for CC(C)(C)c1ccc(CCC=O)cc1 ?
Output: inactive

Input: Hi team, can someone confirm the assay call for CC(=O)S[C@H](C(=O)N[C@H]1Cc2ccccc2[C@H]2CCC[C@@H](C(=O)O)N2C1=O)C(C)C ?
Output: inactive

Input: Hi team, can someone confirm the assay call for O=C(OC1C[C@H]2CC[C@@H](C1)[N+]21CCCC1)C(O)(c1ccccc1)c1ccccc1 (stereo partly drawn) ?
Output: inactive

Input: Hi team, can someone confirm the assay call for CC1(COc2ccc(CC3SC(=O)NC3=O)cc2)CCCCC1 (stereo not drawn) ?
Output: active

Input: Hi team, can someone confirm the assay call for O=c1[nH][nH]c2ccccc12 ?
Output: inactive

Input: Hi team, can someone confirm the assay call for Cc1ccc(S(=O)(=O)NC(=O)NC2CCCC2)cc1 ?
Output: inactive

Input: Hi team, can someone confirm the assay call for O=C(O)c1c2ccccc2cc2ccccc12 ?
Output: inactive

Input: Hi team, can someone confirm the assay call for Cc1c(N=C=O)cccc1N=C=O ?
Output: inactive

Input: Hi team, can someone confirm the assay call for Oc1ccc(Oc2ccccc2)cc1 ?
Output: active

Input: Hi team, can someone confirm the assay call for CNc1ccccc1 ?
Output: inactive

Input: Hi team, can someone confirm the assay call for O=c1[nH]nc(-c2ccc([N+](=O)[O-])o2)o1 ?
Output: active
